# study target: hFZD7 CRD-Fc (human, UniProt O75084 33-185)
# assay text: spot phage ELISA
Ends that are not written are not given here.
metric: signal:noise ratio
Write the number on its own, no unit after it.

{"binder": "HLSDVFCSDWCDLVFW (not fully specified; cysteine pairing not given here, cyclic peptide library) [SEQ ID NO 38]", "recorded number": 17.5}
{"binder": "SSDFSGCLSWCDLIFG (not fully specified; cysteine pairing not given here, cyclic peptide library) [SEQ ID NO 32]", "recorded number": 28.4}
{"binder": "FDFCSVMPQFIYCPGD (not fully specified; cysteine pairing not given here, cyclic peptide library; also called Fz7-20) [SEQ ID NO 33]", "recorded number": 26}
{"binder": "TSDFSWCLSWCDLIFW (not fully specified; cysteine pairing not given here, cyclic peptide library) [SEQ ID NO 35]", "recorded number": 28.4}
{"binder": "HLSDVCCSDWCDLVFW (not fully specified; cysteine pairing not given here, cyclic peptide library) [SEQ ID NO 34]", "recorded number": 16.1}

Which signal:noise ratio is listed for FDFCTVMPHFIYCPGD (not fully specified; cysteine pairing not given here, cyclic peptide library) [SEQ ID NO 36] ?
27.4

Which signal:noise ratio is listed for FDFCSVMPHFIYCPGD (not fully specified; cysteine pairing not given here, cyclic peptide library) [SEQ ID NO 37] ?
27.5
